- System: HT29 colon
- procedure.summary: NCI-60 one-dose screen, 48 h
- experimental.conditions: 10 µM unless noted
About 83,000 compounds went through this panel and 20% of them were active in at least one assay; those are over-represented in the sample as a whole. Active and inactive are the calls of the source. Rule for the calls: active = growth percent below 10; inactive = the rest.
Valid outcomes are listed here; reply with one: active, inactive

| compound | target.or.test.system | discrete.label |
| --- | --- | --- |
| Cc1c2oc3c(C)ccc(C(=O)OC(C)C4NC(=O)C(C(C)C)N(C)C(=O)CN(C)C(=O)C5CCCN5C(=O)C(C(C)C)NC4=O)c3nc-2c(C(=O)OC(C)C2NC(=O)C(C(C)C)N(C)C(=O)CN(C)C(=O)C3CCCN3C(=O)C(C(C)C)NC2=O)c(N)c1=O (centres undefined) | HT29 colon | active |
| Nc1ccc2c(c1Br)Cc1ccccc1-2 | HT29 colon | inactive |
| CCN(CC)CCSc1ncnc2c1cnn2-c1ccc(S(N)(=O)=O)cc1 | HT29 colon | inactive |
| O=C(CC(C(=O)c1ccccc1)N1CCN(Cc2ccccc2)CC1)c1ccccc1 (centres undefined) | HT29 colon | inactive |
| CCOc1cc(CCNS(=O)(=O)c2ccc(C)cc2)c(C(C)=O)cc1OCC | HT29 colon | inactive |
| COc1ccc2cc(C3=CC(=O)CCC3)ccc2c1 | HT29 colon | inactive |

Given N#Cc1c(-c2ccccc2)cc(-c2ccccc2)n(CCCCC(=O)O)c1=O , state the outcome it received in this test.
inactive

Would you mind telling me which call this test gave CCSc1nc(-c2ccc(F)cc2)c(C#N)c(=O)[nH]1 ?
inactive

Please state the recorded outcome for this compound: CC1c2ccccc2-c2ccccc2N1C (centres undefined)
inactive

----------
- Tested on: EKVX NSCLC
- procedure.summary: NCI-60 one-dose screen, 48 h
- experimental.conditions: 10 µM unless noted
This is part of a sample that, as a whole, favours compounds with a hit. Of some 83,000 tested, about 20% had one in any assay. Active and inactive are the calls of the source. Rule for the calls: active = growth percent below 10; inactive = the rest.
Use one of these outcomes when replying: active, inactive

Reference set (3 entries):
| compound | discrete.label |
| --- | --- |
| COc1ccc(C(=O)COc2ccc(/C=C3\Oc4ccc5ccccc5c4C3=O)cc2)cc1 | inactive |
| c1ccc(-c2n(Cc3ccc4ccccc4c3)cc[n+]2Cc2ccc3ccccc3c2)cc1 | active |
| O=C(c1ccccc1)c1ccc(Oc2ccc([N+](=O)[O-])cc2[N+](=O)[O-])cc1 | inactive |

Each compound tested received a call. Report the one for CN1C(=O)C(C2=NN(C=O)C(c3ccc(F)cc3)C2)C(=O)N(C)C1=O (stereo unspecified) .
inactive

Recorded test outcome, item Cc1cnc2nc(-c3ccc(N(C)C)cc3)cn2c1
inactive

Which outcome did this test record for the compound c1ccc(-c2nc(Nc3nccnn3)c3ccccc3n2)cc1 ?
inactive

----------
- Tested on: RXF 393 renal
- procedure.summary: NCI-60 one-dose screen, 48 h
- experimental.conditions: 10 µM unless noted
This is part of a sample that, as a whole, favours compounds with a hit. Of some 83,000 tested, about 20% had one in any assay. Calls of active or inactive are those of the source. Rule for the calls: active = growth percent below 10; inactive = the rest.
Reply using exactly one outcome from yes (1) for active, no (0) for inactive

Which outcome did this test record for the compound CC(C)OP(=O)(OC(C)C)c1ncc(-c2ccc(C(F)(F)F)cc2)c(NC2CCCCCC2)n1 ?
yes (1)

Called result for CC(C)N(Cc1ccccc1)c1c(Cl)ssc1=O
no (0)

Which outcome was assigned to COc1cnc2c(c1)C(=O)c1c-2n(CCCN2CCCC2)c(=O)c2cc(F)ccc12 in this test?
yes (1)

So what was the verdict on O=C1OC2(c3ccccc31)c1ccccc1-c1ccccc12 in this test?
no (0)

Write down the call the test reported for this compound. Item: COc1ccc(-c2cc(-c3cccnc3)nc(S(=O)(=O)CC(=O)Nc3ccc(C)cc3)c2C#N)cc1OC
no (0)

Please state the recorded outcome for this compound: c1ccc(-c2oc(-c3ccccc3)c3ccccc23)cc1
no (0)

Hi team, can someone confirm the assay call for NS(=O)(=O)c1cc2c(cc1Cl)NC=NS2(=O)=O ?
no (0)

I would be grateful if you could indicate the recorded call for COc1cc(C(=O)/C=C/c2cccc(Nc3ccnc4cc(Cl)ccc34)c2)cc(OC)c1OC .
yes (1)

Please state the recorded outcome for this compound: NS(=O)(=O)c1ccc(-n2ncc3c(N/N=C/c4ccccc4)ncnc32)cc1
yes (1)

Recorded test outcome, item COc1cc(-c2nc3sc4c(c3c(=O)[nH]2)CCCCCC4)cc(OC)c1OC
yes (1)

Where do the numbers come from? From PubChem BioAssay (NCI).
